assay: PK study in Balbc mice (whole blood); format: in vivo; conditions: mouse, Female Balbc mice, IV 1 mg/kg
readout: C0
Value and unit, in that order.

Can you share its C0? I mean this molecule: CCc1c(F)ccc2cc(O)cc(-c3ncc4c(N5CCCC(C)(O)C5)nc(OC[C@]56CCCN5[C@@H](COC(=O)N5CCC7(CC5)CC(C(=O)N[C@H](C(=O)N5C[C@H](O)C[C@H]5C(=O)N[C@@H](C)c5ccc(-c8scnc8C)cc5)C(C)(C)C)C7)CC6)nc4c3F)c12 (stereo partly shown) 8790 ng/mL

----------
biological target: KRAS G12D (Homo sapiens, UniProt P01116, G12D); test: cell-based; conditions: AGS
Sequence (P01116 1-188 isoform P01116-2 G12D): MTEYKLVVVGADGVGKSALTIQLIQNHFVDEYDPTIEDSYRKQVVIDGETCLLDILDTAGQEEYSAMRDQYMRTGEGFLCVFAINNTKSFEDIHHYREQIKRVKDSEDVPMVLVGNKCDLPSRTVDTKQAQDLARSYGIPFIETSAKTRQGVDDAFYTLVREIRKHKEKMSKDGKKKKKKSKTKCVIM
readout: Dmax (%)
Reply with just the number (in %).

Quick check: Dmax of `CCc1c(F)ccc2cc(O)cc(-c3ncc4c(N5CCC[C@@](C)(O)C5)nc(OCC5(CN6CCC(CN7CCN(c8cc([C@H](C(=O)N9C[C@H](O)C[C@H]9C(=O)N[C@@H](C)c9ccc(-c%10scnc%10C)cc9)C(C)C)on8)CC7)CC6)CC5)nc4c3F)c12` ? 95

Can you handle `CCc1c(F)ccc2cc(O)cc(-c3ncc4c(N5CCC[C@@](C)(O)C5)nc(OCC5(CN6CCC(N(C)c7ccc(-c8cn([C@H](C(=O)N9C[C@H](O)C[C@H]9C(=O)N[C@@H](C)c9ccc(-c%10scnc%10C)cc9)C(C)C)nn8)cn7)CC6)CC5)nc4c3F)c12` next? 95

Same again, this time with CCc1c(F)ccc2cc(O)cc(-c3ncc4c(N5CCCC(C)(O)C5)nc(OC[C@]56CCCN5[C@@H](COC(=O)N5CCC7(CC5)CC(C(=O)N[C@H](C(=O)N5C[C@H](O)C[C@H]5C(=O)N[C@@H](C)c5ccc(-c8scnc8C)cc5)C(C)(C)C)C7)CC6)nc4c3F)c12 (stereo partly drawn) 95
